Hi there, I'd appreciate the recorded IC50 for every entry that follows.
Tested on: HT-1080 (human lung fibrosarcoma)
Test Description: Cytotoxicity, MTT assay, HT-1080
Format: cell-based
Experimental Parameters: Homo sapiens, HT-1080; Table 1; 72 h exposure; read-out: HT-1080 IC50 (MTT)

Completed entries (count: 5):
Compound: CCOC(=O)C1=C(C[n+]2cccc(C)c2)NC(C[n+]2cccc(C)c2)=C(C(=O)OCC)C1c1ccccc1.[Br-].[Br-] [compound 5]
Target Of Assay: HT-1080 (human lung fibrosarcoma)
IC50: > 740 µg/mL
//
Compound: CCCCCCCCCCCCOC(=O)C1=C(C[n+]2ccc(C(F)(F)F)cc2)NC(C[n+]2ccc(C(F)(F)F)cc2)=C(C(=O)OCCCCCCCCCCCC)C1c1ccccc1.[Br-].[Br-] [compound 21]
Target Of Assay: HT-1080 (human lung fibrosarcoma)
IC50: 4 µg/mL
//
Compound: CCCCCCCCCCCCOC(=O)C1=C(C[n+]2ccccc2)NC(C[n+]2ccccc2)=C(C(=O)OCCCCCCCCCCCC)C1c1ccccc1 [compound 11]
Target Of Assay: HT-1080 (human lung fibrosarcoma)
IC50: 28 µg/mL
//
Compound: CCCCCCCCCCCCOC(=O)C1=C(C[n+]2ccc(C)cc2)NC(C[n+]2ccc(C)cc2)=C(C(=O)OCCCCCCCCCCCC)C1c1ccc(O)cc1.[Br-].[Br-] [compound 19]
Target Of Assay: HT-1080 (human lung fibrosarcoma)
IC50: 22 µg/mL
//
Compound: CCCCCCCCCCCCOC(=O)C1=C(C[n+]2ccncc2)NC(C[n+]2ccncc2)=C(C(=O)OCCCCCCCCCCCC)C1c1ccccc1 [compound 16]
Target Of Assay: HT-1080 (human lung fibrosarcoma)
IC50: > 100 µg/mL

Your task in this section: give IC50 for each listed record.
1. CCCOCOC(=O)C1=C(C[n+]2ccccc2)NC(C[n+]2ccccc2)=C(C(=O)OCOCCC)C1c1ccccc1OC(F)F.[Br-].[Br-] [compound 7]
2. CCOC(=O)C1=C(C[n+]2ccc(N)cc2)NC(C[n+]2ccc(N)cc2)=C(C(=O)OCC)C1c1ccccc1.[Br-].[Br-] [compound 3]

> 100 µg/mL
441 µg/mL

----------
Assignment: determine reported electrooxidation potential for the given molecules.
Test Description: Electrochemical oxidation potentials, cyclic voltammetry
Type: physicochemical
Experimental Parameters: cyclic voltammetry, glassy carbon electrode, dry acetonitrile

Guide cases for electrooxidation potential, answers given:
Molecule: CCOC(=O)C1=C(C[n+]2ccccc2)NC(C[n+]2ccccc2)=C(C(=O)OCC)C1c1ccccc1.[Br-].[Br-]
Recorded Metric: electrooxidation potential
Experimental Result: 1.57–1.58 V

Molecule: CCCCCCCCCCCCOC(=O)C1=C(C[n+]2ccccc2)NC(C[n+]2ccccc2)=C(C(=O)OCCCCC(F)(F)C(F)(F)C(F)(F)C(F)(F)C(F)(F)C(F)(F)C(F)(F)C(F)(F)F)C1c1ccccc1 (stereo not shown)
Recorded Metric: electrooxidation potential
Experimental Result: 1.69–1.70 V

Molecule: O=C(OCCCCC(F)(F)C(F)(F)C(F)(F)C(F)(F)C(F)(F)C(F)(F)C(F)(F)C(F)(F)F)C1=C(C[n+]2ccccc2)NC(C[n+]2ccccc2)=C(C(=O)OCCCCC(F)(F)C(F)(F)C(F)(F)C(F)(F)C(F)(F)C(F)(F)C(F)(F)C(F)(F)F)C1c1ccccc1
Recorded Metric: electrooxidation potential
Experimental Result: 1.69–1.70 V

Kindly review the next molecule as well.
Please indicate electrooxidation potential recorded for CCCCCCCCCCCCOC(=O)C1=C(C[n+]2ccccc2)NC(C[n+]2ccccc2)=C(C(=O)OCCCCCCCCCCCC)C1c1ccccc1.[Br-].[Br-]
1.57–1.58 V
